Reference source: paper PMC7449246

- assayed.target: HDAC-8 (Homo sapiens)
- Sequence (Q9BY41 1-377): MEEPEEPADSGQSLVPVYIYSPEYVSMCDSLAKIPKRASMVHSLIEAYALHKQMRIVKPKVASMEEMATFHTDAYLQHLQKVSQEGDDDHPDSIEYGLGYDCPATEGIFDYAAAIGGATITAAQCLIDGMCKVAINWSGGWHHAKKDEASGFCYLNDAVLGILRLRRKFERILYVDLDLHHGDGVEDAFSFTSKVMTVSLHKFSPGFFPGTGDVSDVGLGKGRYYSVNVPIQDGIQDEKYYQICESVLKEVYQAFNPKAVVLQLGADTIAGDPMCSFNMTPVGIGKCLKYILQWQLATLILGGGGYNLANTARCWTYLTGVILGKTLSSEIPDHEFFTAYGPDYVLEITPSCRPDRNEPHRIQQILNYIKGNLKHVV
- assay.overview: fluorogenic deacetylase assay with purified HDAC; supported by CETSA in ME-1 cells (Tagg […] to […] °C)

# smiles.representation, uom, IC50
data = [
    ("O=c1cc(-c2ccccc2)oc2cc(O)c(O)c(O)c12", "µM", 3.95),
]
